Tested on: Wild type
ASSAY REMARKS: S. aureus survival, RN4220 and DeltatarO strains – OD600, teichoic acid synthesis inhibitors, primary screen (AID 463173)
CONDITION DESCRIPTION: S. aureus RN4220 wild type/DeltatarO growth, OD600, 18 h, screened at 18.75 µg/mL (by protocol)
Screen size: about 52,000 compounds; about 1,700 (3.3%) were called active. Rule as the data show it: active = survival mostly below about 52% (no sharp cut-off); inactive = mostly above about 56%. This excerpt belongs to a sample that is enriched for actives.
# output must be one of active, inactive

stdin: Call for entry `Cc1cc(Nc2ccccc2Cl)n2nc(-c3ccco3)nc2n1` :
stdout: inactive

stdin: Call for entry `O=C(Cn1cc(S(=O)(=O)N2CCN(c3ccccc3F)CC2)c2ccccc2c1=O)Nc1ccc(F)cc1Cl` :
stdout: inactive

====

Form field: survival (one value per entry).
Test system: Wild type
ASSAY REMARKS: S. aureus survival, RN4220 and DeltatarO strains – OD600, teichoic acid synthesis inhibitors, primary screen (AID 463173)
CONDITION DESCRIPTION: S. aureus RN4220 wild type/DeltatarO growth, OD600, 18 h, active compounds read low, screened at 18.75 µg/mL (by protocol)
The whole screen tested about 52,000 compounds, of which about 1,700 (3.3%) were called active. Shown is part of a subset that was picked to be rich in actives.
Write the answer as a number in %, unit excluded.

| COMPOUND | survival [%] |
| --- | --- |
| Cc1ccc2nc(N3CCC(C(=O)N4CCN(c5cccc(C)c5C)CC4)CC3)[nH]c2c1 | 76 |
| O=c1c2ccccc2n(Cc2c(F)cccc2Cl)c(=O)n1CCc1ccccc1 | 83 |
| Cc1cc(C)cc(Nc2cc(C(=O)NCCCN(C)C3CCCCC3)c3ccccc3n2)c1 | 26 |
| N#Cc1ccc(N2CCCCC2)cc1 | 119 |
| CCc1ccccc1Nc1nn2c(=O)c3ccc(C(=O)NCc4ccc(C)cc4)cc3nc2s1 | 92 |

stdin: Please report survival for the following compound: `COc1ccc(Nc2cc(C(=O)NCCCN(C)C3CCCCC3)c3ccccc3n2)cc1`
stdout: 99

stdin: Please report survival for the following compound: `Cc1cc2ccccc2n1-c1ccc(C(=O)N2CCC(C(=O)NCc3ccccc3Cl)CC2)s1`
stdout: 60

stdin: Please report survival for the following compound: `Cc1ccc(CCNC(=O)c2oc(=O)c3ccccc3c2-c2ccc(C)cc2)cc1`
stdout: 17

stdin: Please report survival for the following compound: `COc1ccc(-c2nc3ccccc3n3c(-c4cccc(C)c4)c4c(=O)n(C)c(=O)n(C)c4c23)cc1OC`
stdout: 77

stdin: Please report survival for the following compound: `Cc1cccc(NC(=O)CSc2nccn2Cc2ccc(F)cc2)c1C`
stdout: 71

stdin: Please report survival for the following compound: `O=c1c2ccccc2n(Cc2ccccc2Cl)c(=O)n1CCc1ccccc1`
stdout: 15

stdin: Please report survival for the following compound: `CCOc1ccc(C(=O)NCCS(=O)(=O)N2CCN(c3ccccc3F)CC2)cc1OCC`
stdout: 102

stdin: Please report survival for the following compound: `O=C(CCn1c(=O)c2ccccc2n(Cc2cccc(Cl)c2)c1=O)NCCc1ccccc1`
stdout: 74

====

System: Wild type
ASSAY REMARKS: S. aureus survival, RN4220 and DeltatarO strains – OD600, teichoic acid synthesis inhibitors, primary screen (AID 463173)
CONDITION DESCRIPTION: S. aureus RN4220 wild type/DeltatarO growth, OD600, 18 h, active compounds read low, screened at 18.75 µg/mL (by protocol)
Hit rate of the full screen: of about 52,000 compounds, about 1,700 (3.3%) were called active. Many of the other results were omitted from the sample, so actives are more common in it than they were.
Output satisfied for records whose survival is lower than 70%, not satisfied for records at or above 70%.

| COMPOUND | DISCRETE LABEL |
| --- | --- |
| CC(Oc1ccc(F)cc1)C(=O)Nc1nc(-c2ccc(F)cc2)ns1 (stereo unspecified) | satisfied |
| Cc1cc(C)c(NC(=O)c2cc(C)nc3c2c(C)nn3-c2cccc(F)c2)c(C)c1 | not satisfied |
| Cc1cc(C)cc(OCC(=O)Nc2nc(-c3ccc(F)cc3)ns2)c1 | not satisfied |
| CCC(Oc1ccc(F)cc1)C(=O)Nc1cc(-c2ccc(C)cc2)no1 (stereo unspecified) | satisfied |
| COc1cccc(-c2ccc3c(N)c(C(=O)c4ccc(Br)cc4)sc3n2)c1 | satisfied |

stdin: Lab note: confirm whether the reported survival for this compound is below 70%, equality not counting. compound: Clc1ccc(CCNC(c2cccc(Cl)c2)c2nnc(-c3ccccc3)o2)cc1 (stereo unspecified)
stdout: satisfied

stdin: Lab note: confirm whether the reported survival for this compound is below 70%, equality not counting. compound: `CCOc1ccc(Nc2nc(N)c(C(=O)c3ccccc3Cl)s2)cc1`
stdout: satisfied

stdin: Lab note: confirm whether the reported survival for this compound is below 70%, equality not counting. compound: `CCOC(=O)c1cnc2c(ccc3ccccc32)c1Nc1ccc(Cl)cc1`
stdout: satisfied

====

Tested on: Wild type
ASSAY REMARKS: S. aureus survival, RN4220 and DeltatarO strains – OD600, teichoic acid synthesis inhibitors, primary screen (AID 463173)
CONDITION DESCRIPTION: S. aureus RN4220 wild type/DeltatarO growth, OD600, 18 h, active compounds read low, screened at 18.75 µg/mL (by protocol)
About 1,700 (3.3%) of roughly 52,000 compounds were called active. This is one part of a sample in which actives are shown more often than they occur.
Form field: survival (one value per entry).
Write the answer as a number in %, unit excluded.

| COMPOUND | VALUE UNIT | survival |
| --- | --- | --- |
| COc1ccccc1CNC(=O)c1cc2c(s1)-c1ccccc1OC2 | % | 92 |

stdin: Please report survival for the following compound: `CCCN(C(=O)c1cc2c(s1)-c1c(C)cccc1OC2)c1ccc(OCC)cc1`
stdout: 95

stdin: Please report survival for the following compound: `CCN(C(=O)c1cc2c(s1)-c1ccccc1OC2)c1cccc(C(F)(F)F)c1`
stdout: 14

stdin: Please report survival for the following compound: `CCc1ccc(CNC(=O)c2cc3c(s2)-c2ccccc2OC3)cc1`
stdout: 95

stdin: Please report survival for the following compound: O=C(NC1CCCCC1)C(c1ccco1)N(C(=O)C1COc2ccccc2O1)c1cccc(F)c1 (stereo not given)
stdout: 132

stdin: Please report survival for the following compound: `CCCN(C(=O)c1cc2c(s1)-c1ccccc1OC2)c1ccc(C(C)C)cc1`
stdout: 5

stdin: Please report survival for the following compound: `CCc1ccccc1N(CC)C(=O)c1cc2c(s1)-c1ccccc1OC2`
stdout: 9

stdin: Please report survival for the following compound: `CCN(C(=O)c1cc2c(=O)oc3ccccc3c2s1)c1cccc(C(F)(F)F)c1`
stdout: 131

stdin: Please report survival for the following compound: `CCOc1ccc(CNC(=O)c2cc3c(s2)-c2ccccc2OC3)cc1`
stdout: 91

stdin: Please report survival for the following compound: `CCN(C(=O)c1cc2c(=O)n(CC)c3ccccc3c2s1)c1cccc(C(F)(F)F)c1`
stdout: 89

====

Test system: Wild type
ASSAY REMARKS: S. aureus survival, RN4220 and DeltatarO strains – OD600, teichoic acid synthesis inhibitors, primary screen (AID 463173)
CONDITION DESCRIPTION: S. aureus RN4220 wild type/DeltatarO growth, OD600, 18 h, active compounds read low, screened at 18.75 µg/mL (by protocol)
Out of some 52,000 compounds screened, about 1,700 (3.3%) were called active. This excerpt belongs to a sample that is enriched for actives.
Form field: survival (one value per entry).
Write the answer as a number in %, unit excluded.

Record excerpt, results attached:
| COMPOUND | VALUE UNIT | survival |
| --- | --- | --- |
| Cc1oc(-c2ccc(Cl)cc2)nc1CN1CCCC(C(=O)NCc2ccc(Cl)cc2)C1 (stereo unspecified) | % | 85 |
| Cc1ccc(Cn2c(=O)c3ccccc3n3c(-c4ccccc4)nnc23)cc1 | % | 91 |
| CCOc1ccc(C(=O)Nc2cc(-c3nc4ccccc4s3)ccc2OC)cc1 | % | 163 |
| Cc1ccccc1-c1nc(CN2CCCC(C(=O)NCc3ccc(Cl)cc3)C2)c(C)o1 (stereo unspecified) | % | 68 |
| Cc1ccc(NC(=O)C(Cc2c[nH]c3ccccc23)NC(=O)OCC(C)C)cc1 (stereo unspecified) | % | 54 |

stdin: Please report survival for the following compound: COc1ccc(-c2n[nH]c3c2C(c2ccc(Cl)cc2Cl)NC3=O)cc1 (stereo unspecified)
stdout: 0

====

Tested on: Wild type
ASSAY REMARKS: S. aureus survival, RN4220 and DeltatarO strains – OD600, teichoic acid synthesis inhibitors, primary screen (AID 463173)
CONDITION DESCRIPTION: S. aureus RN4220 wild type/DeltatarO growth, OD600, 18 h, active compounds read low, screened at 18.75 µg/mL (by protocol)
Out of some 52,000 compounds screened, about 1,700 (3.3%) were called active. Only a selection was taken, and actives are over-represented in it overall.
Output Yes for records whose survival is lower than 70%, No for records at or above 70%.

Below, 6 compounds whose answers are already recorded.
| SMILES ENTRY | TESTED ON | DISCRETE LABEL |
| --- | --- | --- |
| O=C(COc1ccc(F)cc1)Nc1cccc(OCc2cc(=O)n3ccccc3n2)c1 | Wild type | No |
| CCOc1ccc(C(=O)Nc2ccc(OCc3cc(=O)n4cccc(C)c4n3)cc2)cc1 | Wild type | Yes |
| Cc1cccc(C(=O)Nc2ccc(OCc3cc(=O)n4ccc(C)cc4n3)cc2)c1 | Wild type | Yes |
| CCOC(=O)c1c(S(=O)(=O)NCC(=O)Nc2cc(C)ccc2C)c(C)n(C)c1C | Wild type | Yes |
| COc1cc(C(=O)Nc2ccc(OCc3cc(=O)n4cccc(C)c4n3)cc2)cc(OC)c1OC | Wild type | No |
| COc1ccccc1C(=O)Nc1ccc(OCc2cc(=O)n3ccc(C)cc3n2)cc1 | Wild type | No |

stdin: Lab note: confirm whether the reported survival for this compound is below 70%, equality not counting. compound: `Cc1cn2c(=O)cc(COc3ccc(NC(=O)c4cccc(F)c4)cc3)nc2s1`
stdout: No

stdin: Lab note: confirm whether the reported survival for this compound is below 70%, equality not counting. compound: `Cc1cccn2c(=O)cc(COc3ccc(NC(=O)c4cccc(F)c4)cc3)nc12`
stdout: Yes

stdin: Lab note: confirm whether the reported survival for this compound is below 70%, equality not counting. compound: `COc1cccc(C(=O)Nc2cccc(OCc3cc(=O)n4cccc(C)c4n3)c2)c1`
stdout: No
